Assign Log2 enrichment ratio to each entry below.
# target.of.assay: T1, Epstein-Barr virus BHRF1 a.a. 1-161 with C-terminal avi-6his tag (Epstein-Barr virus)
# T1 construct: also called EBV BHRF1; BHRF1-biotin
# T1 chain: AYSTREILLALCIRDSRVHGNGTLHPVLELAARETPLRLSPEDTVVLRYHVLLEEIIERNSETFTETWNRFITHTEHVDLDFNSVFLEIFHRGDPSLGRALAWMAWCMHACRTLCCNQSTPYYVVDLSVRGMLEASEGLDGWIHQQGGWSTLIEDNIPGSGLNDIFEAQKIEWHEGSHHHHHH
# protocol: yeast display library, FACS sort at 400 nM BHRF1, deep sequencing
Give bare numbers, in log2.

binder	value.type	endpoint.result
Index 43 (designed binder) GKKAEEVLKEARKLHEAQLRYAYLMMKDWREKKQQEEKQTQREEKWTAWWIALMLMAIGDIFNFAEWAKEELDKLREKGLVEKKKAEEAKEKAEKLAEEASRRASEFAQLFAKWDKEG	Log2 enrichment ratio	-3.04
Index 70 (designed binder) GLLWLAIILKAEELARKKDDEAEERIRRLEDEKRKGDPGTLGEAERTDRWIAIMLMAIGDAFNVMLEAKEEAEKLEKLGLVHKELLEKVKEEAERLFERSSDNFEEAAKRADDMEKEG	Log2 enrichment ratio	-3.13
Index 72 (designed binder) GGSYDDIADLAKKLHKKIAEEAKKKIDELLKEAFEDKPYEEEFAKKMFKWIAIALMAIGDLFNAAELAKRLAEDLKKDNNRDENKAEEAKQRAEQFEKEGAEELAKKGEEAAKKLAGG	Log2 enrichment ratio	-3.47

List the reported Log2 enrichment ratio of each binder below.
1. Index 17 (designed binder) GRSAEIMREILEKQAEDDAKKIRDIAQKWKERRKRYDPRDEEREEEVEKWIAFALMAIGDIFNLARWALLQARWERRWNLSHEDEGKNHEENVKDAEDRAHWKAREAAREGAKMSWEG
2. Index 67 (designed binder) GNRSEEVKELMRELAERVLLKFRWRADEMNKEKDKKYDKEELKRELTEKWIAFALDAIGDLFNAAELAKKLADLFKKGTGFLEERLERRKEEIEKLEEKGSRKVSYEGRREAEKIESG

Given back:
1. -2.54
2. -3.44

List the reported Log2 enrichment ratio of each binder below.
1. Index 20 (designed binder) GLRFEEIERYAREEADKIADEAKERFEKLKKLFLWLTDKDEERLKMTHLWIAGALEAIGDLFNAAELAKELAEKAARLTSQDANRRDEARKKIDEAEKEAADKVSKAAKEAAKFFEQG
2. Index 48 (designed binder) GEKGKEKAQKFRDIIKDILEEAIRLAKDLAEDAKKFDLKLEKLLEATLKWIAAALMAIGDLFNFKDLAEKEVRERHDRGEISSDRRDKYEKEAREGADEAAKELSKLAKIAEKKILEG

Given back:
1: -3.65; 2: -2.33
